- system_under_test: FGFR3 (UniProt P22607)
- Sequence (P22607 whole entry, looked up): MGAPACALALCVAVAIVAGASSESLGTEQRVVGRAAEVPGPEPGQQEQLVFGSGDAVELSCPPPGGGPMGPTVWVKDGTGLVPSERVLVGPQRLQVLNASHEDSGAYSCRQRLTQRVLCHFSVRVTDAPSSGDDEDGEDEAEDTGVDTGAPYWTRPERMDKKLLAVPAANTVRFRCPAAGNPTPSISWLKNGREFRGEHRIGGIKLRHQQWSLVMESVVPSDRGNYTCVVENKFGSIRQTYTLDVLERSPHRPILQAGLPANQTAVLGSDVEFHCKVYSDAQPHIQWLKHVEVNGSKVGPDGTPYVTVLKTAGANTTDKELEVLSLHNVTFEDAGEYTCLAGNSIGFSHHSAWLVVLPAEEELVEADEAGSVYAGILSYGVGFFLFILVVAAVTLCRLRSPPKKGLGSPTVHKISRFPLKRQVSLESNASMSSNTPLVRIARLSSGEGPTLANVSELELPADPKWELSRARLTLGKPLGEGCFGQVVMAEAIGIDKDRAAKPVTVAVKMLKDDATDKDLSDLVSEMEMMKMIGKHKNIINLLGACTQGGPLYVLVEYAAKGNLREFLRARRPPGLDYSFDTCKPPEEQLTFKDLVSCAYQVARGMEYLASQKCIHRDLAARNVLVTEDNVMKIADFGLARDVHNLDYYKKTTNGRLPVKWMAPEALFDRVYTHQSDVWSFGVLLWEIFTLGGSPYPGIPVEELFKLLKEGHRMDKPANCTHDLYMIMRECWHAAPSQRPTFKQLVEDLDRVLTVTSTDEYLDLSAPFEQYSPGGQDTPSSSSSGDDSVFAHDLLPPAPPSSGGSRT
- assay_info: phosphorylation enrichment, bacterial display (enrichment ratio); higher = better substrate or ligand; peptides without Tyr show the background;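 further: 11-residue human phosphosite peptides and single-mutation variants displayed on the E. coli surface, counted by deep sequencing, each peptide's frequency after selection divided by its frequency in the unselected input library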;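 further: frequency after pTyr selection over input frequency; kinase dosed for 20-30% of maximal phosphorylation in three min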
Cut-off 0.5 on phosphorylation enrichment, inclusive. At or above means T; below means F.

                        entry_sequence       system_under_test  group
0      KVGRVYLFLQP [ITGA2B_Y360_E355K]  FGFR3 (UniProt P22607)      T
1        KRLYAYKMLMA [TMC2_Y209_Q205R]  FGFR3 (UniProt P22607)      T
2  NNKKDYFDMFE [SLC26A3_Y526_K521N_YF]  FGFR3 (UniProt P22607)      T

Q: Does LNPFIYSLRNR [OR1A1_Y288] have a reported phosphorylation enrichment of at least 0.5?
Ans: T

Q: Does CCNHPYRINGA [CHD7_Y1256_L1257R] have a reported phosphorylation enrichment of at least 0.5?
Ans: T

Q: Does TFGVAYRAKDK [CDK11B_Y453_V452A_YF] have a reported phosphorylation enrichment of at least 0.5?
Ans: F

Q: Does PPVVNYEEDAR [FER_Y402] have a reported phosphorylation enrichment of at least 0.5?
Ans: T

Q: Does KVNKIYHPDFI [LIG3_Y767_Y768H] have a reported phosphorylation enrichment of at least 0.5?
Ans: T

Q: Does SLTGAYASGIP [POM121C_Y378_T379A] have a reported phosphorylation enrichment of at least 0.5?
Ans: T

* * *

- system_under_test: Fyn (UniProt P06241)
- Sequence (P06241 whole entry, looked up): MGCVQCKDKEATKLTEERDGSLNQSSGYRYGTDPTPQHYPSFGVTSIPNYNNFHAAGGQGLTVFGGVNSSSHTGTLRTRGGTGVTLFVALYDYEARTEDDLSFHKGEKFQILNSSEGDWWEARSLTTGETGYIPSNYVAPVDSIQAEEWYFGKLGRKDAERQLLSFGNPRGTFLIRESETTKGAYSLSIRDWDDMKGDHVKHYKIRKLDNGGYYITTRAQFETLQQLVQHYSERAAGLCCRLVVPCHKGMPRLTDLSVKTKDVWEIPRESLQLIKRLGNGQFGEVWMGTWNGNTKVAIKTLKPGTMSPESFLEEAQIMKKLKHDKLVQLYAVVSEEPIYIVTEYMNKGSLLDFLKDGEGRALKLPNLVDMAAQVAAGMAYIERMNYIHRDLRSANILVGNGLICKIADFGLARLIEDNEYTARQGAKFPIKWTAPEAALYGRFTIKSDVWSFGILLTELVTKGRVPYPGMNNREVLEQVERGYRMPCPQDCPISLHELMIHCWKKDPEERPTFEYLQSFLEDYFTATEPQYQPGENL
- assay_info: phosphorylation enrichment, bacterial display (enrichment ratio); higher = better substrate or ligand; peptides without Tyr show the background
Please respond with reported phosphorylation enrichment for every item in the list.
One number for each entry.

Solved entries:
In [3]: df
Out[3]:
                      entry_sequence     system_under_test            measurement_name    val
0         KHCEDYVCSFN [DSC1_Y846_YF]  Fyn (UniProt P06241)  phosphorylation enrichment  0.473
1    AKAFIYASHIV [ZNF573_Y229_G224A]  Fyn (UniProt P06241)  phosphorylation enrichment      1
2      SVVLPYEPPEV [TP53_Y220_V218L]  Fyn (UniProt P06241)  phosphorylation enrichment  0.456
3            INMKKYCKKDY [NTN1_Y490]  Fyn (UniProt P06241)  phosphorylation enrichment  0.391
4  LARDMHDKEFF [MET_Y1230_Y1230H_YF]  Fyn (UniProt P06241)  phosphorylation enrichment  0.821

State the recorded phosphorylation enrichment for every item in the following list.
1. LGRKLYSIATP [ABHD12_Y345_A349T]
2. FYNSEYGELSE [FLT4_Y1337]

Ans:
1: 0.413; 2: 1.59

* * *

- system_under_test: Hck (UniProt P08631)
- Sequence (P08631 whole entry, looked up): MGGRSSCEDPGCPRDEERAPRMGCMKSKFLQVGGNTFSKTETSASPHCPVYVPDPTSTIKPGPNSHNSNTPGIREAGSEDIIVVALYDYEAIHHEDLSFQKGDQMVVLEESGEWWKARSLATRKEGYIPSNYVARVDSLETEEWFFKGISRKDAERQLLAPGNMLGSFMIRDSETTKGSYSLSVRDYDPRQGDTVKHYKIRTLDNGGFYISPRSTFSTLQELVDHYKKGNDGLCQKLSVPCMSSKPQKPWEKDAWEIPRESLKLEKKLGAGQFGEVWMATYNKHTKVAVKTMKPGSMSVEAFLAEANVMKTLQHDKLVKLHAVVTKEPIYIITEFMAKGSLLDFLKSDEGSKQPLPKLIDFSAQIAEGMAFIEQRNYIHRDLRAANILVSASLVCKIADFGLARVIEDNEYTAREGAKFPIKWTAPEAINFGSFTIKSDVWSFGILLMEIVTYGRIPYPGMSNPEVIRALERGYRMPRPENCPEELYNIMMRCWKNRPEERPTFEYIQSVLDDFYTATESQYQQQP
- assay_info: phosphorylation enrichment, bacterial display (enrichment ratio); higher = better substrate or ligand; peptides without Tyr show the background
Cut-off 0.5 on phosphorylation enrichment, inclusive. At or above means Met; below means Not met.

Here are 5 sequences together with their reported answers.
In [3]: df
Out[3]:
                     entry_sequence     system_under_test    group
0  FKEQGYHRLPS [RIN1_Y681_P686S_YF]  Hck (UniProt P08631)      Met
1    NFRNTYVNANE [KCNH2_Y475_T473N]  Hck (UniProt P08631)  Not met
2  ADRNHYRRFRR [YBX1_Y145_P149R_YF]  Hck (UniProt P08631)      Met
3       SFCFRYRCAAR [SUMF1_Y344_YF]  Hck (UniProt P08631)  Not met
4          VASIFYTLVIP [OR8K3_Y277]  Hck (UniProt P08631)      Met

Q: Does SRGHQYQELPR [KCNH2_Y1009_R1007H] have a reported phosphorylation enrichment of at least 0.5?
Ans: Met

Q: Does LKTNCYNNGKD [DNMT3B_Y404] have a reported phosphorylation enrichment of at least 0.5?
Ans: Met

Q: Does KHCEDYVCSFN [DSC1_Y846_YF] have a reported phosphorylation enrichment of at least 0.5?
Ans: Not met

Q: Does DFFDLYGGEKK [PTPN11_Y66_F71K_YF] have a reported phosphorylation enrichment of at least 0.5?
Ans: Met

Q: Does MIAIRYSHSRR [ACOXL_Y260_T255M] have a reported phosphorylation enrichment of at least 0.5?
Ans: Not met

Q: Does SGEKPYKCSVC [ZNF543_Y283_E287V] have a reported phosphorylation enrichment of at least 0.5?
Ans: Not met

* * *

- Tested on: c-Src
- assay_info: phosphorylation enrichment, bacterial display (enrichment ratio); higher = better substrate or ligand; peptides without Tyr show the background
measurement_name: phosphorylation enrichment

>>> df
                      entry_sequence    val
0  NARGLYFKLHN [GATA2_Y376_C373R_YF]  0.542
1            TGVRDYIHVVD [GALE_Y241]  0.381
2       SFMVRYNQPRV [GRIN2D_Y736_YF]  0.398
3  IFHLSYIHNCE [PDE6B_Y227_L228I_YF]  0.352
4           QWQQLYDTLNA [EIF3M_Y351]   3.99
5   EFKDAYTFAAD [BRDT_Y335_K336T_YF]   1.36

Record FLTQHYDAEPQ [ANG_Y38_K41E] . Reported phosphorylation enrichment: 0.601

* * *

Please respond with reported phosphorylation enrichment for every item in the list.
- system_under_test: Fes (UniProt P07332)
- Sequence (P07332 whole entry, looked up): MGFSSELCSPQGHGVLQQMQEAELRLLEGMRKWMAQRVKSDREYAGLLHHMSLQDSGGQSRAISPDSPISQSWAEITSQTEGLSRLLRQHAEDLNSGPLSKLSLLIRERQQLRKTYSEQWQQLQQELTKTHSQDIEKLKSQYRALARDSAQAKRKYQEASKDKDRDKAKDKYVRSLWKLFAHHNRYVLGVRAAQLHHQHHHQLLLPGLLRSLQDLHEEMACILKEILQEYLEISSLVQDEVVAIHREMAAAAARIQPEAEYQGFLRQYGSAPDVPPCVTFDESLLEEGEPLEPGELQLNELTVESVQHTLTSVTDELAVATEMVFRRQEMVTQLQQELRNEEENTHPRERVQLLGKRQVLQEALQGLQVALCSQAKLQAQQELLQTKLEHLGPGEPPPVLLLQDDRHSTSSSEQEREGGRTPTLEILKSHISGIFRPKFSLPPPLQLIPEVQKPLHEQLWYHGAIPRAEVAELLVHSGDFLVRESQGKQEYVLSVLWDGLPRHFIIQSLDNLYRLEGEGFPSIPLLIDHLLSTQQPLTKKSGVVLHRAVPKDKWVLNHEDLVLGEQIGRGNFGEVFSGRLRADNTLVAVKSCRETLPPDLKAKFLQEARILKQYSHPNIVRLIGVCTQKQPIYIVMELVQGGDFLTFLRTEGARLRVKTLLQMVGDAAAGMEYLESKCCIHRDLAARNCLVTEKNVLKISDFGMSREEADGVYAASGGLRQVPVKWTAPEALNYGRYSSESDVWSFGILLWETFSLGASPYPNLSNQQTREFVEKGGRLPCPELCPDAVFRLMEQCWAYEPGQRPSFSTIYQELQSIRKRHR
- assay_info: phosphorylation enrichment, bacterial display (enrichment ratio); higher = better substrate or ligand; peptides without Tyr show the background
Numbers only.

In [3]: df
Out[3]:
                     entry_sequence            measurement_name    val
0        EFKDAYKFAAD [BRDT_Y335_YF]  phosphorylation enrichment  0.731
1     WQQQSYLDYGI [CTNNB1_Y30_S33Y]  phosphorylation enrichment   1.03
2  GRTNICKNKKD [SLC26A3_Y520_Y520C]  phosphorylation enrichment  0.973
3            SELVRYDARVH [MET_Y971]  phosphorylation enrichment  0.739
4   DIDKIYIRTGI [PIK3CA_Y355_V356I]  phosphorylation enrichment   1.01
5             FTNRNYDLDYD [MYC_Y12]  phosphorylation enrichment   1.12
6          DVYVSYDYGKS [SORL1_Y139]  phosphorylation enrichment   0.98
7    EMTAEYTCTRK [ACAD9_Y325_A326T]  phosphorylation enrichment  0.974
8        SFPREYGSQEG [RBM10_Y48_YF]  phosphorylation enrichment  0.755
9           TMKSRYMELYD [BBS2_Y644]  phosphorylation enrichment  0.868

State the recorded phosphorylation enrichment for every item in the following list.
1. QLAPQYTFTQG [FLNA_Y1761_A1764T_YF]
2. ADGLEYSRTEL [MMUT_Y287_G291E]

Ans:
[1.09, 0.873]

State the recorded phosphorylation enrichment for every item in the following list.
1. MARDIYQASYY [LTK_Y672_R673Q]
2. RLRVVYPWTQR [HBB_Y36_L33R]

Ans:
1. 0.879
2. 0.711

* * *

- system_under_test: Hck (UniProt P08631)
- assay_info: phosphorylation enrichment, bacterial display (enrichment ratio); higher = better substrate or ligand; peptides without Tyr show the background
Cut-off 0.7 on phosphorylation enrichment, inclusive. At or above means 1; below means 0.

Here are 4 sequences together with their reported answers.
In [3]: df
Out[3]:
                      entry_sequence  group
0  ISRASYFRKGG [ALK_Y1282_Y1278S_YF]      0
1     QADIIYVNTQL [MERTK_Y872_V870I]      1
2      SLIDMYSKVLD [OPA1_Y268_E270K]      0
3     STDDGCIDLQF [TMEM230_Y29_Y29C]      0

Q: Does SLTRLYVGENA [NLRP3_Y861] have a reported phosphorylation enrichment of at least 0.7?
Ans: 0

Q: Does `SNKELYEKYMI` have a reported phosphorylation enrichment of at least 0.7?
Ans: 1

* * *

- system_under_test: Fyn (UniProt P06241)
- assay_info: phosphorylation enrichment, bacterial display (enrichment ratio); higher = better substrate or ligand; peptides without Tyr show the background
Please map values of phosphorylation enrichment to classes as shown: bottom end (below 0.4), midrange (0.4 to below 0.6), top end (0.6 or more)

In [3]: df
Out[3]:
                   entry_sequence     group
0  NQNIGYELGHR [KCNN3_Y268_K269E]  midrange

Q: Into which bin does this sequence go? YALAEYTEVKT [ALDH1A3_Y497]
Ans: midrange

Q: Into which bin does this sequence go? FVPSFYHAFSG [ACTN4_Y265_S262P_YF]
Ans: top end

Q: Into which bin does this sequence go? ITLKGYNLSNS [GNPTAB_Y728_K732N]
Ans: midrange

Q: Into which bin does this sequence go? LARNMYDKEYY [MET_Y1230_D1228N]
Ans: midrange

Q: Into which bin does this sequence go? CTTIHYNYVCN [TP53_Y234_M237V]
Ans: midrange

Q: Into which bin does this sequence go? LGRKLYSIAAP [ABHD12_Y345]
Ans: top end
